study_target: Human fibrinogen receptor (αIIb β3) (Homo sapiens, UniProt P05106+P08514)
Construct: Human fibrinogen receptor (αIIb β3) was purified from outdated platelets
protocol_description: Purified IIb/IIIa receptor assay (solid phase receptor assay, biotinylated vitronectin competition)
condition_label: inhibition of 50% of the maximum binding of biotinylated vitronectin; 1 nM labeled ligand, 2 hours, room temperature, highest concentration of test compound 1.0×10^-4 M
Structures can show the parent of a compound that is named as a salt.
Doc: threshold 900 nM (exclusive). Items with IC50 beneath it return 1.0; others return 0.0.

Consider the worked cases shown below.
>>> assigned_class("N=C(N)Nc1cccc([S+]([O-])Cc2cccc(C(CC(=O)O)c3ccccc3)c2)c1 (stereo not shown) [Example 88, Trifluoroacetate Salt]")
1.0
>>> assigned_class("N=C(N)Nc1cccc(S(=O)(=O)Nc2cccc(C(CC(=O)O)c3cc(F)c(F)c(F)c3)c2)c1 (stereo not shown) [Example 80, Trifluoroacetate Salt]")
0.0
>>> assigned_class("O=C(O)CC(c1ccccc1)c1cccc(OCc2cccc(NC3=NCCN3)c2)c1 (stereo not shown) [Example 99, Trifluoroacetate Salt]")
0.0
>>> assigned_class("CCOC(=O)CCc1cccc(CNC(=O)c2cccc(NC(N)=O)c2)c1")
0.0
>>> assigned_class("O=C(O)CC(c1cc(F)cc(F)c1)c1cccc(NS(=O)(=O)c2cccc(NC3=NCCN3)c2)c1 (stereo not shown) [Example 98, Trifluoroacetate Salt]")
1.0
>>> assigned_class("CCC(CC(=O)O)c1cccc(CNC(=O)c2cc(NC(=N)N)cc(C(F)(F)F)c2)c1 (racemic) [Example 59, trifluoroacetate salt]")
0.0

From here, focus on the item given below.
Incoming: Is it true that IC50 reported for CCC(CC(=O)O)c1cccc(NS(=O)(=O)c2cccc(NC(N)=NC(N)=O)c2)c1 (stereo not shown) [Example 95, Trifluoroacetate Salt] is less than 900 nM?
Outgoing: 0.0

* * *

Would you mind telling me the reported IC50 of each entry?
study_target: Human fibrinogen receptor (αIIb β3) (Homo sapiens, UniProt P05106+P08514)
Construct: Human fibrinogen receptor (αIIb β3) was purified from outdated platelets
protocol_description: Purified IIb/IIIa receptor assay (solid phase receptor assay, biotinylated vitronectin competition)
condition_label: inhibition of 50% of the maximum binding of biotinylated vitronectin; 1 nM labeled ligand, 2 hours, room temperature, highest concentration of test compound 1.0×10^-4 M
Counter-ions that a name gives are not always drawn.
Answers are plain numbers, in µM.

Some solved cases for reference:
>>> obs_value("N=C(N)Nc1cccc(CNc2cccc(C(CC(=O)O)c3ccccc3)c2)c1 (stereo not shown) [Example 11, trifluoroacetate salt]")
2.44
>>> obs_value("CC(CC(=O)O)c1cccc(CNC(=O)c2cccc(Nc3nc4ccccc4[nH]3)c2)c1 (racemic) [Example 69]")
10.1
>>> obs_value("N=C(N)Nc1cccc(S(=O)(=O)Nc2cccc(C(CC(=O)O)c3ccccc3O)c2)c1 (stereo not shown) [Example 102, Trifluoroacetate Salt]")
0.706
>>> obs_value("NC(=O)Nc1cccc(S(=O)(=O)Nc2cccc(C(CC(=O)O)c3ccccc3)c2)c1 (stereo not shown) [Example 8]")
11.6

List the reported IC50 of each compound below.
1. CC(C)C(CC(=O)O)c1cccc(CNC(=O)c2cccc(NC(=N)N)c2)c1 (stereo not shown) [Example 43, trifluoroacetate salt]
2. N=C(N)c1cccc(C(=O)NCc2cccc(CCC(=O)O)c2)c1 [Example 23, trifluoroacetate salt]
3. N=C(N)Nc1cccc(C(=O)NCc2cccc(CCC(=O)O)c2)c1 [Example 35, trifluoroacetate salt]

Outgoing:
1. 0.798
2. 4.35
3. 6.08

* * *

study_target: Human vitronectin receptor (αv β3) (Homo sapiens, UniProt P05106+P06756)
Construct: Human vitronectin receptor(αv β3) was purified from human placenta; from tissue; host or cells: human placenta
protocol_description: Vitronectin adhesion assay (solid phase receptor assay, biotinylated vitronectin competition)
Format: binding
condition_label: inhibition of 50% of the maximum binding of biotinylated vitronectin; 1 nM labeled ligand, 2 hours, room temperature, highest concentration of test compound 1.0×10^-4 M; read-out: AvB3 IC50
Structures can show the parent of a compound that is named as a salt.
measured_quantity: IC50 (nM)
One number for each entry, in nM.

Below, 5 compounds whose answers are already recorded.
>>> obs_value("N=C(N)Nc1cccc(S(=O)(=O)Nc2cccc(C3CC(=O)Oc4ccccc43)c2)c1 (stereo not shown) [Example 100, Trifluoroacetate Salt]")
21.8
>>> obs_value("O=C(O)CC(c1ccccc1)c1cccc(OCc2cccc(NC3=NCCN3)c2)c1 (stereo not shown) [Example 99, Trifluoroacetate Salt]")
48.6
>>> obs_value("CC(CC(=O)O)c1cccc(CNC(=O)c2cccc(NC(N)=NC(N)=O)c2)c1 (racemic) [Example 65, trifluoroacetate salt]")
23
>>> obs_value("CC(CC(=O)O)c1cccc(CNC(=O)c2cccc(NC(=N)N)c2)c1 (stereo not shown) [Example 40, trifluoroacetate salt]")
11.6
>>> obs_value("N=C(N)Nc1cccc(C(=O)NCc2cccc(C(CC(=O)O)c3cc(F)cc(F)c3)c2)c1 (racemic) [Example 60, trifluoroacetate salt]")
4.58

Here's the next entry for you.
Incoming: // map N=C(N)Nc1cccc(C(=O)NCc2cccc(C(CC(=O)O)c3ccccc3)c2)c1 (stereo not shown) [Example 38, trifluoroacetate salt] to recorded IC50 (system: Human vitronectin receptor (αv β3) (Homo sapiens, UniProt P05106+P06756))
Outgoing: 8.95

* * *

Record form. Attribute: pIC50. Fill in for each entry.
study_target: Human fibrinogen receptor (αIIb β3) (Homo sapiens, UniProt P05106+P08514)
Construct: Human fibrinogen receptor (αIIb β3) was purified from outdated platelets
protocol_description: Purified IIb/IIIa receptor assay (solid phase receptor assay, biotinylated vitronectin competition)
condition_label: inhibition of 50% of the maximum binding of biotinylated vitronectin; 1 nM labeled ligand, 2 hours, room temperature, highest concentration of test compound 1.0×10^-4 M
Structures can show the parent of a compound that is named as a salt.
Answers are plain numbers, as −log10 of the molar value.

>>> obs_value("N=C(N)Nc1cccc(C(=O)NCc2cccc(CC(=O)O)c2)c1 [Example 49, trifluoroacetate salt]")
4.90
>>> obs_value("N=C(N)Nc1cccc(/C=C/C(=O)c2cccc(OCC(=O)O)c2)c1 [Example 73, monohydrochloride]")
4.95
>>> obs_value("N=C(N)Nc1cccc(S(=O)(=O)Cc2cccc(C(CC(=O)O)c3ccccc3)c2)c1 (stereo not shown) [Example 89, Trifluoroacetate Salt]")
6.10
>>> obs_value("NC(=S)Nc1cccc(S(=O)(=O)Nc2cccc(C(CC(=O)O)c3ccccc3)c2)c1 (stereo not shown) [Example 10]")
5.26
>>> obs_value("O=C(O)COc1cccc(C(=O)/C=C/c2cccc(NC3=NCCN3)c2)c1 [Example 72, trifluoroacetate salt hydrate]")
5.09
>>> obs_value("O=C(O)CC(c1ccccc1)c1cccc(NS(=O)(=O)c2cccc(NC(=O)NCc3ccccc3)c2)c1 (stereo not shown) [Example 13, monohydrate]")
4.93

# ---- query compound ----
Incoming: Returns the measured pIC50 for the input compound. Input: N=C(N)Nc1cccc(COc2cccc(C(CC(=O)O)c3ccccc3)c2)c1 (stereo not shown) [Example 96, Trifluoroacetate Salt]
Outgoing: 5.64

* * *

Exercise: for every item that follows, state its recorded IC50.
study_target: Human fibrinogen receptor (αIIb β3) (Homo sapiens, UniProt P05106+P08514)
Construct: Human fibrinogen receptor (αIIb β3) was purified from outdated platelets
protocol_description: Purified IIb/IIIa receptor assay (solid phase receptor assay, biotinylated vitronectin competition)
condition_label: inhibition of 50% of the maximum binding of biotinylated vitronectin; 1 nM labeled ligand, 2 hours, room temperature, highest concentration of test compound 1.0×10^-4 M
Counter-ions that a name gives are not always drawn.
One number for each entry, in µM.

Examples with their reported IC50 follow.
>>> obs_value("N=C(N)Nc1cccc(C(=O)NCc2cccc(C(CC(=O)O)c3cc(Cl)cc(Cl)c3)c2)c1 (stereo not shown)")
0.145
>>> obs_value("N=C(N)Nc1cccc(S(=O)(=O)Nc2cccc(C(CC(=O)O)c3c(F)c(F)cc(F)c3F)c2)c1 (stereo not shown) [Example 82, Trifluoroacetate Salt]")
11.7
>>> obs_value("O=C(O)CC(c1cc(F)cc(F)c1)c1cccc(NS(=O)(=O)c2cccc(NC3=NCCCN3)c2)c1 (stereo not shown) [Example 97, Bis(trifluoroacetate) Salt]")
0.262

Query compound follows.
Incoming: Test system Human fibrinogen receptor (αIIb β3) (Homo sapiens, UniProt P05106+P08514); read-out IC50; what value for O=C(O)CC(c1cc(F)cc(F)c1)c1cccc(NS(=O)(=O)c2cccc(NC=NCc3ccccc3)c2)c1 (stereo not shown) [Example 84, Trifluoroacetate Salt] ?
Outgoing: 15.1

* * *

What IC50 was measured for each of the following?
study_target: Human fibrinogen receptor (αIIb β3) (Homo sapiens, UniProt P05106+P08514)
Construct: Human fibrinogen receptor (αIIb β3) was purified from outdated platelets
protocol_description: Purified IIb/IIIa receptor assay (solid phase receptor assay, biotinylated vitronectin competition)
condition_label: inhibition of 50% of the maximum binding of biotinylated vitronectin; 1 nM labeled ligand, 2 hours, room temperature, highest concentration of test compound 1.0×10^-4 M
Structures can show the parent of a compound that is named as a salt.
Answers are plain numbers, in µM.

>>> obs_value("CC(CC(=O)OC(C)(C)C)c1cccc(CNC(=O)c2cccc(NC(=N)N)c2)c1 (stereo not shown) [Example 39, trifluoroacetate salt]")
62.4
>>> obs_value("N=C(N)Nc1cccc(CC(=O)Nc2cccc(CCC(=O)O)c2)c1 [Example 46, trifluoroacetate salt]")
2.28
>>> obs_value("C[C@H](CC(=O)O)c1cccc(CNC(=O)c2cccc(NC(=N)N)c2)c1 [Example 56, trifluoroacetate salt hydrate]")
1.31

For the 3 compounds below, give their IC50 values.
1. CCC(CC(=O)O)c1cccc(CNC(=O)c2ccc(Cl)c(NC(=N)N)c2)c1 (racemic) [Example 58, trifluoroacetate salt]
2. CC(CC(=O)O)c1cccc(CNC(=O)c2cccc(NC3=NC(=O)CN3)c2)c1 (racemic)
3. NC(=O)N=C(N)Nc1cccc(S(=O)(=O)Nc2cccc(C(CC(=O)O)c3cc(F)cc(F)c3)c2)c1 (stereo not shown) [Example 91, Trifluoroacetate Salt]

Outgoing:
1. 5.18
2. 12.9
3. 1.07

Incoming: Name the reported IC50 value associated with the compound CCOC(=O)CC(c1ccccc1)c1cccc(CNC(=O)c2cccc(NC(=N)N)c2)c1 (stereo not shown) [Example 37, trifluoroacetate salt]
Outgoing: 79
